# Test system: rodent lifetime carcinogenesis bioassay, tumor incidence TD50
# measurement-protocol: carcinogenic potency in animals, long-term in vivo studies, CPDB compilation (AID 1745844)
# reported-conditions: mouse; strain B6C3F1; males; inhaled; site: lung; lesion: alveolar/bronchiolar carcinoma; dosed 80 weeks; study length 96 weeks

# compound-string, TD50
rows = [
    ("C=CC(=C)C", "8410 mg/kg/day"),
]

###

# Tested on: rodent lifetime carcinogenesis bioassay, tumor incidence TD50
# measurement-protocol: carcinogenic potency in animals, long-term in vivo studies, CPDB compilation (AID 1745844)
# reported-conditions: mouse; strain Charles River CD1; males; in drinking water; site: liver; lesion: hepatocellular carcinoma; dosed 52 weeks; study length 52 weeks
parameter-measured: TD50 (mg/kg/day)

# compound-string, unit-abbreviation, measured-result
measured = [
    ("CN(C)N", "mg/kg/day", 10.8),
]

###

# System: rodent lifetime carcinogenesis bioassay, tumor incidence TD50
# measurement-protocol: carcinogenic potency in animals, long-term in vivo studies, CPDB compilation (AID 1745844)
# reported-conditions: mouse; strain (C3H x RIII)F1 (MTV+); males; in drinking water; site: lung; lesion: several types; types named in the paper; dosed 104 weeks; study length 104 weeks

# compound-string, target-or-test-system, unit-abbreviation, TD50
rows = [
    ("O=S(=O)(O)NC1CCCCC1", "rodent lifetime carcinogenesis bioassay, tumor incidence TD50", "mg/kg/day", 4380),
]

###

# System: rodent lifetime carcinogenesis bioassay, tumor incidence TD50
# measurement-protocol: carcinogenic potency in animals, long-term in vivo studies, CPDB compilation (AID 1745844)
# reported-conditions: rat; strain Fischer 344; males; by gavage; site: liver; lesion: several types; types named in the paper; dosed 30 weeks; study length 55 weeks
parameter-measured: TD50

# compound-string, measured-result
data = [
    ("CCN(C)N=O", "0.0503 mg/kg/day"),
]

###

# System: rodent lifetime carcinogenesis bioassay, tumor incidence TD50
# measurement-protocol: carcinogenic potency in animals, long-term in vivo studies, CPDB compilation (AID 1745844)
# reported-conditions: monkey; strain Cynomolgus [Macaca fascicularis]; both sexes; in feed; site: any site (literature study); lesion: several types; types named in the paper; dosed 928 weeks; study length 1135 weeks
parameter-measured: TD50 (mg/kg/day)

# compound-string, target-or-test-system, unit-abbreviation, measured-result
measured = [
    ("CN(N=O)C(N)=O", "rodent lifetime carcinogenesis bioassay, tumor incidence TD50", "mg/kg/day", 2.64),
]

###

# System: rodent lifetime carcinogenesis bioassay, tumor incidence TD50
# measurement-protocol: carcinogenic potency in animals, long-term in vivo studies, CPDB compilation (AID 1745844)
# reported-conditions: rat; strain Hebrew University; males; in drinking water; site: eyelid; lesion: epidermoid carcinoma; dosed 113 weeks; study length 113 weeks

# compound-string, TD50
measured = [
    ("NC(N)=S", "93.5 mg/kg/day"),
]

###

# Tested on: rodent lifetime carcinogenesis bioassay, tumor incidence TD50
# measurement-protocol: carcinogenic potency in animals, long-term in vivo studies, CPDB compilation (AID 1745844)
# reported-conditions: mouse; strain B6C3F1; females; in feed; site: liver; lesion: hepatocellular adenoma + hepatoblastoma + hepatocellular carcinoma; dosed 103 weeks; study length 106 weeks
parameter-measured: TD50 (mg/kg/day)

# compound-string, measured-result
data = [
    ("Nc1cc(S(=O)(=O)[O-])cc2cc(S(=O)(=O)[O-])c(N=Nc3ccc(-c4ccc(N=Nc5c(S(=O)(=O)[O-])cc6cc(S(=O)(=O)[O-])cc(N)c6c5O)c(O)c4)cc3O)c(O)c12.[Cu].[Cu].[Na+].[Na+].[Na+].[Na+]", 711),
]

###

# Tested on: rodent lifetime carcinogenesis bioassay, tumor incidence TD50
# measurement-protocol: carcinogenic potency in animals, long-term in vivo studies, CPDB compilation (AID 1745844)
# reported-conditions: mouse; strain B6C3F1; males; by gavage; site: any site (literature study); lesion: several types; types named in the paper; dosed 78 weeks; study length 92 weeks

# compound-string, TD50 / mg/kg/day
rows = [
    ("ClC(Cl)C(Cl)Cl", 38.7),
    ("ClC(Cl)Cl", 71.1),
]

###

# Test system: rodent lifetime carcinogenesis bioassay, tumor incidence TD50
# measurement-protocol: carcinogenic potency in animals, long-term in vivo studies, CPDB compilation (AID 1745844)
# reported-conditions: rat; strain Wistar albino; females; in feed; site: liver; lesion: hepatocellular carcinoma; dosed 52 weeks; study length 91 weeks

# compound-string, TD50
data = [
    ("Cc1ccc(N=Nc2c(O)c(S(=O)(=O)O)cc3cc(S(=O)(=O)O)ccc23)c(C)c1", "2620 mg/kg/day"),
]

###

# Tested on: rodent lifetime carcinogenesis bioassay, tumor incidence TD50
# measurement-protocol: carcinogenic potency in animals, long-term in vivo studies, CPDB compilation (AID 1745844)
# reported-conditions: mouse; strain B6C3F1; males; in feed; site: lung; lesion: alveolar/bronchiolar adenoma + alveolar/bronchiolar carcinoma; dosed 104 weeks; study length 105 weeks
The following compounds are shown together with reported TD50 values.

# compound-string, target-or-test-system, TD50 / mg/kg/day
rows = [
    ("Nc1ccc(N)c2c1C(=O)c1c(N)ccc(N)c1C2=O", "rodent lifetime carcinogenesis bioassay, tumor incidence TD50", 701),
    ("CN(C)NC(=O)CCC(=O)O", "rodent lifetime carcinogenesis bioassay, tumor incidence TD50", 3400),
    ("OCC(CO)(CBr)CBr", "rodent lifetime carcinogenesis bioassay, tumor incidence TD50", 218),
    ("Cc1ccc(OP(=O)(Oc2ccc(C)cc2)Oc2ccc(C)cc2)cc1", "rodent lifetime carcinogenesis bioassay, tumor incidence TD50", 187),
]

###

# Test system: rodent lifetime carcinogenesis bioassay, tumor incidence TD50
# measurement-protocol: carcinogenic potency in animals, long-term in vivo studies, CPDB compilation (AID 1745844)
# reported-conditions: mouse; strain Ha/ICR; females; i.p.; site: abdomen; lesion: several types; types named in the paper; dosed 78 weeks; study length 78 weeks

# compound-string, TD50
measured = [
    ("ClCOCCOCCl", "4.62 mg/kg/day"),
]

###

# System: rodent lifetime carcinogenesis bioassay, tumor incidence TD50
# measurement-protocol: carcinogenic potency in animals, long-term in vivo studies, CPDB compilation (AID 1745844)
# reported-conditions: rat; strain Wistar; both sexes; in feed; site: abdomen; lesion: malignant lymphoma; dosed 91 weeks; study length 91 weeks
The following compounds are listed with their measured TD50 values.
parameter-measured: TD50

# compound-string, measured-result
data = [
    ("Cc1cc(C)c(S(=O)(=O)O)cc1N=Nc1cc(S(=O)(=O)O)c2ccccc2c1O", "6130 mg/kg/day"),
    ("O=S(=O)(O)c1ccc2c(N=Nc3ccc(S(=O)(=O)O)c4ccccc34)c(O)c(S(=O)(=O)O)cc2c1", "6130 mg/kg/day"),
]

###

# Tested on: rodent lifetime carcinogenesis bioassay, tumor incidence TD50
# measurement-protocol: carcinogenic potency in animals, long-term in vivo studies, CPDB compilation (AID 1745844)
# reported-conditions: rat; strain Fischer 344; males; in feed; site: Zymbal's gland; lesion: adenoma + carcinoma; dosed 104 weeks; study length 105 weeks

# compound-string, target-or-test-system, TD50
data = [
    ("OCC(CO)(CBr)CBr", "rodent lifetime carcinogenesis bioassay, tumor incidence TD50", "1600 mg/kg/day"),
]

###

# System: rodent lifetime carcinogenesis bioassay, tumor incidence TD50
# measurement-protocol: carcinogenic potency in animals, long-term in vivo studies, CPDB compilation (AID 1745844)
# reported-conditions: rat; strain Fischer 344; males; in drinking water; site: urinary bladder; lesion: transitional-cell carcinoma; dosed 78 weeks; study length 78 weeks
parameter-measured: TD50

# compound-string, target-or-test-system, parameter-measured, measured-result
records = [
    ("CCCCN(CCCCO)N=O", "rodent lifetime carcinogenesis bioassay, tumor incidence TD50", "TD50", "0.175 mg/kg/day"),
]

###

# System: rodent lifetime carcinogenesis bioassay, tumor incidence TD50
# measurement-protocol: carcinogenic potency in animals, long-term in vivo studies, CPDB compilation (AID 1745844)
# reported-conditions: mouse; strain B6C3F1; females; in feed; site: any site (literature study); lesion: malignant tumor; dosed 78 weeks; study length 78 weeks

# compound-string, TD50 / mg/kg/day
data = [
    ("CN1CCCC1=O", 14900),
]

###

# System: rodent lifetime carcinogenesis bioassay, tumor incidence TD50
# measurement-protocol: carcinogenic potency in animals, long-term in vivo studies, CPDB compilation (AID 1745844)
# reported-conditions: mouse; strain BALB/cLacDp; females; in feed; site: lung; lesion: several types; types named in the paper; dosed 60 weeks; study length 132 weeks
Activity calls are given as the source filed them. No rule for the calls is given here.

# compound-string, TD50
records = [
    ("Nc1ccc(N=Nc2ccc(N)cc2)cc1", "240 mg/kg/day (inactive)"),
    ("Nc1ccc(NC(=O)c2ccc(N)cc2)cc1", "360 mg/kg/day (inactive)"),
]
